Test system: E. coli TESEC Mtb Asd
ASSAY_PROTOCOL: growth (OD600 after 10 h); higher = more growth (less inhibition)
STATED_CONDITIONS: arabinose induction (level): Low; compound 0.1 mM; raw OD600 reference: median of DMSO wells 0.417, cell-free background 0.041
Structures can show the parent of a compound that is named as a salt.
# growth >= 0.3 gives criterion met, anything below gives criterion not met

// below: answered compounds
Ask: Decide: growth of CCCC(=O)Nc1ccc(OCC(O)CNC(C)C)c(C(C)=O)c1 (stereo unspecified) [Acebutolol hydrochloride] >= 0.3?
Reply: criterion met

Ask: Please tell me: is the compound `Cc1c(NC(=O)c2cccnc2)c(=O)n(-c2ccccc2)n1C` at or over 0.3 in terms of growth?
Reply: criterion met

Ask: Check this compound for growth at or above 0.3: `Nc1cc(C(Cl)=C(Cl)Cl)c(S(N)(=O)=O)cc1S(N)(=O)=O`
Reply: criterion met

Ask: Form field: growth at least 0.3? Entry: `CC(C)/N=c1\cc2n(-c3ccc(Cl)cc3)c3ccccc3nc-2cc1Nc1ccc(Cl)cc1`
Reply: criterion met

Ask: # bool: growth of CN(C)C(=N)NC(=N)N [Metformin hydrochloride] >= 0.3
Reply: criterion met

Ask: Tell me whether growth is at least 0.3 here: `Cc1cc(C(=O)NNCc2ccccc2)no1`
Reply: criterion met

Ask: Please indicate if the recorded growth for `CN(C)[C@@H]1C(=O)C(C(=O)NCNCCCC[C@H](N)C(=O)O)=C(O)[C@@]2(O)C(=O)C3=C(O)c4c(O)cccc4[C@@](C)(O)[C@H]3C[C@@H]12` meets or exceeds 0.3.
Reply: criterion not met

Ask: Decide: is the reported value of growth for NS(=O)(=O)c1cc(C(=O)O)c(NCc2ccco2)cc1Cl [Furosemide] equal to or greater than 0.3?
Reply: criterion met

Ask: Test whether the compound OCc1cc(C(O)CNCCCCCCOCCCCc2ccccc2)ccc1O (stereo unspecified) records growth of 0.3 or higher.
Reply: criterion not met

Ask: Answer whether growth of `CC[C@H]1OC(=O)C[C@@H](O)[C@H](C)[C@@H](O[C@@H]2O[C@H](C)[C@@H](O[C@H]3C[C@@](C)(O)[C@@H](O)[C@H](C)O3)[C@H](N(C)C)[C@H]2O)[C@@H](CC=O)C[C@@H](C)C(=O)/C=C/C(C)=C/[C@@H]1CO[C@@H]1O[C@H](C)[C@@H](O)[C@@H](OC)[C@H]1OC` is greater than or equal to 0.3.
Reply: criterion not met

Others:
Ask: hey, is growth for this one >= 0.3? `O=C(O)CN(CCN(CC(=O)O)CC(=O)O)CCN(CC(=O)O)CC(=O)O`
Reply: criterion not met

Ask: Hi team, for `Cc1cnc(C(=O)O)c[n+]1[O-]` , is the recorded growth at or above 0.3?
Reply: criterion not met

Ask: growth >= 0.3 for CN(C)CCc1c[nH]c2ccc(Cn3cncn3)cc12 [Rizatriptan benzoate] ?
Reply: criterion met

* * *

Test system: E. coli TESEC Mtb Alr
ASSAY_PROTOCOL: growth (OD600 after 10 h); higher = more growth (less inhibition)
STATED_CONDITIONS: arabinose 10000000 nM; compound 0.1 mM; raw OD600 reference: median of DMSO wells 0.146, cell-free background 0.041
Counter-ions that a name gives are not always drawn.
Form field: growth (one value per entry).
Simply state the number, no unit and no words.

Some entries whose results are on file:
Ask: # lookup: growth of CCCCN1CCCCC1C(=O)Nc1c(C)cccc1C (stereo not drawn) [Bupivacaine hydrochloride]
Reply: 0.157

Ask: // returns reported growth for input CCN(CC)CCNC(=O)COc1ccc(OC)cc1 [Mefexamide hydrochloride]
Reply: 0.143

Ask: I am curious: what growth value has been reported for O=C(O[C@@H]1C[C@@H]2C[C@H]3C[C@H](C1)N2CC3=O)c1c[nH]c2ccccc12 [Dolasetron mesilate] ?
Reply: 0.114

Ask: Quick one: growth of CC(C)(C)NCC(O)COc1cccc2c1CCC(=O)N2 (stereo not drawn) [Carteolol hydrochloride] ?
Reply: 0.143

Ask: Need growth, item CC(C)n1c(/C=C/C(O)CC(O)CC(=O)O)c(-c2ccc(F)cc2)c2ccccc21 (stereo not drawn) [Fluvastatin sodium salt]
Reply: 0.157

Ask: If you can, please state the reported growth value of `CCOCCn1c(N2CCCN(C)CC2)nc2ccccc21` .
Reply: 0.135

More entries:
Ask: Recorded growth for CCCCCCCCCCCCCCCC[N+](C)(C)CCN(Cc1ccc(OC)cc1)c1ncccn1 [Thonzonium bromide] , please?
Reply: 0.0932

Ask: Fill in: growth of COc1ccc(Cl)cc1C(=O)NCCc1ccc(S(=O)(=O)NC(=O)NC2CCCCC2)cc1 [Glibenclamide] is ___
Reply: 0.125

Ask: Reported growth for CC1(C)O[C@@H]2C[C@H]3[C@@H]4C[C@H](F)C5=CC(=O)CC[C@]5(C)[C@H]4[C@@H](O)C[C@]3(C)[C@]2(C(=O)CO)O1 [Flurandrenolide] : what is it?
Reply: 0.131

Ask: Sample NC(=O)N1c2ccccc2CC(=O)c2ccccc21 [Oxcarbazepine] — what was its growth?
Reply: 0.146

Ask: For the compound shown here, CC(Oc1c(Cl)cccc1Cl)C1=NCCN1 (stereo not drawn) , give the reported growth.
Reply: 0.139

Ask: Data request, read-out growth, for `CC(C)(O)c1ccccc1CC[C@@H](SCC1(CC(=O)O)CC1)c1cccc(/C=C/c2ccc3ccc(Cl)cc3n2)c1`
Reply: 0.261

Ask: Fill in: growth of CC[N+](C)(CC)CCOC(=O)C1c2ccccc2Oc2ccccc21 [Methantheline bromide] is ___
Reply: 0.135
